molecular target: AChE-induced Aβ (1-40) aggregation (human recombinant AChE) (Homo sapiens, UniProt P22303); construct: purchased Sigma-Aldrich; assay: Inhibition of AChE-induced Aβ aggregation, thioflavin T fluorescence; format: biochemical; conditions: inhibitor 100 μM; Aβ 230 μM, AChE 2.3 μM, 48 h; read-out: Inhibition (%) 100 μM ± SEM
Sequence (P22303 32-614): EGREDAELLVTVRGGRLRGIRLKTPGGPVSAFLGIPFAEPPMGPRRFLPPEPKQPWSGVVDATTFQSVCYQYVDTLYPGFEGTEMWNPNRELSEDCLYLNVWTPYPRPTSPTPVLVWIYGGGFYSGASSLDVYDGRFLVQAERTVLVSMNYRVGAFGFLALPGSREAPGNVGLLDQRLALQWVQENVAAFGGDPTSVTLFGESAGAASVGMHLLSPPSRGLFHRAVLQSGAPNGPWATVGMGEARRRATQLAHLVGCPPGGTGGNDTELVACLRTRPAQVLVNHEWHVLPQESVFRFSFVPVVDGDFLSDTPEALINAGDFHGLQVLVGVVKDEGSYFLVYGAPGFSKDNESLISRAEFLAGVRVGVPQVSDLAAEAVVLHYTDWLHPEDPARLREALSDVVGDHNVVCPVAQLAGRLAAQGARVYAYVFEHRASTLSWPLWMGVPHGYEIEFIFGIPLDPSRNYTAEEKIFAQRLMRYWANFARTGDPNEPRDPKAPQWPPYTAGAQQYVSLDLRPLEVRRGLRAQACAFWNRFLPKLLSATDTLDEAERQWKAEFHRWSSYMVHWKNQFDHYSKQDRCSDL
Counter-ions that a name gives are not always drawn.
Test Readout: inhibition at 100 µM (%)

1. CC[C@@]1(c2cccc(O)c2)CCCCN(CCCCCCCCCCN2CCCC[C@@](CC)(c3cccc(O)c3)C2)C1 ... 66.6
2. CC[N+](C)(CC)CCC[n+]1c(-c2ccccc2)c2cc(N)ccc2c2ccc(N)cc21 [Propidium iodine, reference compound] ... 16.7
3. CC[C@@]1(c2cccc(O)c2)CCCCN(CCCCCCCCCN2CCCC[C@@](CC)(c3cccc(O)c3)C2)C1 [(A = CH2, n = 9), Hydrochloride] ... 74.4
4. CC[C@@]1(c2cccc(O)c2)CCCCN(CCCCCCCCN2CCCC[C@@](CC)(c3cccc(O)c3)C2)C1 ... 0
